target: human muscarinic M4 receptor (Homo sapiens, UniProt P08173); construct: expressed in transfected cells; experiment: Alphascreen Surefire phospho-ERK1/2 functional assay, M4; type: cell-based; conditions: CHO cells stably expressing human M4; phospho-ERK1/2; * = variable results; read-out: pEC50 M4 (converted)
Sequence (P08173 whole entry): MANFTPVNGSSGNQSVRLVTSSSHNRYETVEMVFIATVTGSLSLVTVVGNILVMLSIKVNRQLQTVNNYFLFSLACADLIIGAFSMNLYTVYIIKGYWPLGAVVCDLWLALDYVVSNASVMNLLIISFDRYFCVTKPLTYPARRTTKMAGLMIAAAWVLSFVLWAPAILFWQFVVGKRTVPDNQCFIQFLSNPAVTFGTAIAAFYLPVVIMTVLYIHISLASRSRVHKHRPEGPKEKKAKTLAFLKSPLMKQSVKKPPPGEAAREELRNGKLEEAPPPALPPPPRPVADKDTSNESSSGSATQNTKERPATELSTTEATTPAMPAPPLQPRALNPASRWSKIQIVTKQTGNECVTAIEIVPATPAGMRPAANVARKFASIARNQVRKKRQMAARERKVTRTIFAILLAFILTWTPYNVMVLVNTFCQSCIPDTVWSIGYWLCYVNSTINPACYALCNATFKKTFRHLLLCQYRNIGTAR
Quantity name: EC50 (nM)
Give just the number in nM; leave the unit off.

>  <Molecule>
CCOC(=O)N1CCC2(CC(N3CCC(N4CC[C@H](F)C4)CC3)C2)C1 (single isomer, unassigned) [2-99 Isomer 2]

>  <Experimental system>
human muscarinic M4 receptor (Homo sapiens, UniProt P08173)

>  <EC50 [nM]>
158

$$$$
>  <Molecule>
CCCn1nccc1C1CCN(C2CC3(CCN(C(=O)OCC)C3)C2)CC1 (single isomer, unassigned) [1-49 Isomer 2]

>  <Experimental system>
human muscarinic M4 receptor (Homo sapiens, UniProt P08173)

>  <EC50 [nM]>
79.4

$$$$
>  <Molecule>
CCOC(=O)N1CCC2(CC(N3CCC([C@@H]4CCCN4C(=O)N(C)Cc4ccccn4)CC3)C2)C1 (single isomer, unassigned) [2-63 Isomer 2]

>  <Experimental system>
human muscarinic M4 receptor (Homo sapiens, UniProt P08173)

>  <EC50 [nM]>
63.1

$$$$
>  <Molecule>
CCOC(=O)N1CCC2(CC(N3CCC(N4C(=O)CCC4=O)CC3)C2)C1 (single isomer, unassigned) [2-112 Isomer 2]

>  <Experimental system>
human muscarinic M4 receptor (Homo sapiens, UniProt P08173)

>  <EC50 [nM]>
251

$$$$

Task item: Specify EC50 for CCOC(=O)N1CCC2(CC(N3CCC(C)(c4nc(C)no4)CC3)C2)C1 (single isomer, unassigned) [1-41 Isomer 2] and stop.
Reply: 251

Task item: Fill in reported EC50 for this entry: CCOC(=O)N1CCC2(CC(N3CCC(c4cc(C)cnc4OC)CC3)C2)C1 (single isomer, unassigned) [3-12 Isomer 2]
Reply: 3.98

Task item: Name the recorded EC50 of the molecule listed here: CCOC(=O)N1CCC2(CC(N3CCC(N4CCCC4c4nnnn4C)CC3)C2)C1 (single isomer, unassigned) [2-130 Isomer 2]
Reply: 63.1

Task item: Return EC50 (reported value) for this molecule: CCOC(=O)N1CCC2(CC(N3CCC(C4CCCN4C(=O)NC)CC3)C2)C1 (single isomer, unassigned) [2-16 Isomer 2]
Reply: 6.31

Task item: Quick one: give measured EC50 for COC(=O)N1CCC2(CC(N3CCC(c4ncc(C)n4C)CC3)C2)C1 (single isomer, unassigned) [1-9 Isomer 2]
Reply: 794

Task item: Give reported EC50 value for [2H]C([2H])([2H])C([2H])([2H])OC(=O)N1CCC2(CC(N3CCC(n4cccn4)CC3)C2)C1 (single isomer, unassigned) [1-70 Isomer 2]
Reply: 5.01

Task item: Note EC50 for the molecule shown: CCOC(=O)N1CCC2(CC(N3CCC(N4CC(F)(F)C[C@@H]4C(=O)N(C)C)CC3)C2)C1 (single isomer, unassigned) [2-89 Isomer 2]
Reply: 200

Task item: Give recorded EC50. CCOC(=O)N1CCC2(CC(N3CCC(N4CCCC4c4nnn(C)n4)CC3)C2)C1 (single isomer, unassigned) [2-129 Isomer 2]
Reply: 100

Task item: Please report EC50 for the following molecule: CCOC(=O)N1CCC2(CC(N3CCC(n4nnnc4C)CC3)C2)C1 (single isomer, unassigned) [1-63 Isomer 2]
Reply: 1000

Task item: Using known records, supply EC50 for CCOC(=O)N1CCC2(CC(N3CCC(c4c(C)cnn4C)CC3)C2)C1 (single isomer, unassigned) [1-58 Isomer 2]
Reply: 31.6

Task item: Tell me measured EC50 for CCOC(=O)N1CCC2(CC(N3CCC(N4C(=O)OC[C@@H]4C)CC3)C2)C1 (single isomer, unassigned) [2-121 Isomer 2] please.
Reply: 200

Task item: Look up and report measured EC50 for this entry: CCOC(=O)N1CCC2(CC(N3CCC(c4nccn4C)CC3)C2)C1 (single isomer, unassigned) [1-7 Isomer 2]
Reply: 25.1

Task item: Assign EC50 to the following record: CCOC(=O)N1CCC2(CC(N3CCC([C@@H]4CCCN4C(=S)NC)CC3)C2)C1 (single isomer, unassigned) [2-75 Isomer 2]
Reply: 2.51

Task item: Give EC50 for the following molecule: CCOC(=O)N1CCC2(CC(N3CCC([C@@H]4CCCN4C(=O)NCC(F)(F)F)CC3)C2)C1 (single isomer, unassigned) [2-26 Isomer 2]
Reply: 6.31

Task item: Fill in reported EC50 for this entry: CCOC(=O)N1CCC2(CC(N3CCC([C@@H]4CCCN4CCF)CC3)C2)C1 (single isomer, unassigned) [2-68 Isomer 2]
Reply: 63.1

Task item: Note EC50 for the molecule shown: CCOC(=O)N1CCC2(CC(N3CCC(n4cccn4)CC3)C2)C1 (single isomer, unassigned) [1-33 Isomer 2]
Reply: 3.98

Task item: Complete the entry with EC50 for CCOC(=O)N1CCC2(CC(N3CCC(c4nnco4)CC3)C2)C1 (single isomer, unassigned) [1-28 Isomer 2]
Reply: 501
